experiment-notes: In vitro cytotoxicity assay (resazurin)
Type: cell-based
test-conditions: human, HeLa cells; 20 μM compound; 48 h exposure, 24 h
experimental-readout: viability at 48 h, 20 µM (%)
Note: unit % is implicit; provide only the numeric part.

Prompt: May I ask what viability at 48 h, 20 µM has been recorded for O=C(/C=C/c1cccc([N+](=O)[O-])c1)Nc1ccc2c(c1)B(O)OC2 ?
Completion: 87

Prompt: How about this molecule: O=C(/C=C/c1ccc(Br)cc1)Nc1ccc2c(c1)B(O)OC2
Completion: 89.9

Prompt: Ok, now CC[C@H]1CN2CCc3cc(OC)c(OC)cc3[C@@H]2C[C@@H]1C[C@H]1NCCc2cc(OC)c(OC)cc21 [EM, emetine, reference compound]
Completion: 3.19

Prompt: Consider next the molecule COc1ccc(/C=C/C(=O)Nc2ccc3c(c2)B(O)OC3)cc1 in the same way.
Completion: 102

Prompt: Now try O=C(/C=C/c1ccc2c(c1)OCO2)Nc1ccc2c(c1)B(O)OC2 .
Completion: 132

----------
experiment-notes: In vitro cytotoxicity assay (resazurin)
Format: cell-based
test-conditions: human, HeLa cells; 20 μM compound; 48 h exposure, 24 h
For each of the molecules below, state its viability at 48 h, 20 µM.
Kindly provide the numeric value in % only, without the unit symbol.

Prompt: Data request, read-out viability at 48 h, 20 µM, for O=C(/C=C/c1ccc([N+](=O)[O-])cc1)Nc1ccc2c(c1)B(O)OC2 [Compound 5c]
Completion: 94.3

Prompt: For COc1ccc(/C=C/C(=O)Nc2ccc3c(c2)B(O)OC3)cc1OC [Compound 5f] then?
Completion: 110

Prompt: Also O=C(/C=C/c1ccccc1)Nc1ccc2c(c1)B(O)OC2 [Compound 5a] , if possible.
Completion: 108

----------
Give melting point for every item shown.

Prompt: Given the molecule O=C(/C=C/c1ccc2c(c1)OCO2)Nc1ccc2c(c1)B(O)OC2 , what is its reported melting point?
Completion: 145 to 148 °C

Prompt: Same lookup for O=C(/C=C/c1ccc(Br)cc1)Nc1ccc2c(c1)B(O)OC2 , please.
Completion: 206 to 210 °C

Prompt: Thanks! And O=C(/C=C/c1ccc([N+](=O)[O-])cc1)Nc1ccc2c(c1)B(O)OC2 ?
Completion: 176 to 180 °C

Prompt: What would you report for COc1ccc(/C=C/C(=O)Nc2ccc3c(c2)B(O)OC3)cc1 ?
Completion: 190 to 192 °C

Prompt: Try the molecule O=C(/C=C/c1ccccc1)Nc1ccc2c(c1)B(O)OC2
Completion: 182 to 184 °C

Prompt: What do you have for O=C(/C=C/c1cccc([N+](=O)[O-])c1)Nc1ccc2c(c1)B(O)OC2 ?
Completion: 176 to 178 °C

Prompt: Next up: COc1ccc(/C=C/C(=O)Nc2ccc3c(c2)B(O)OC3)cc1OC
Completion: 188 to 190 °C

----------
System: Trichomonas vaginalis G3 strain
experiment-notes: In vitro antitrichomonal assay (hemocytometer counts)
Type: cell-based
test-conditions: 24 h, read-out: IC50 T. vaginalis
For each entry below, report its pIC50 value.
Answer as the number alone; pIC50 is minus log10 of concentration in mol/L.

Prompt: What value of pIC50 has been reported for the following compound? O=C(/C=C/c1ccc2c(c1)OCO2)Nc1ccc2c(c1)B(O)OC2
Completion: 4.64

Prompt: For Cc1ncc([N+](=O)[O-])n1CCO [ME, metronidazole, reference compound] then?
Completion: 6.28

Prompt: Again, but for O=C(/C=C/c1ccc(Br)cc1)Nc1ccc2c(c1)B(O)OC2
Completion: 4.90

Data origin: paper PMC6222898
